testedTarget: T1, biotinylated GITR (human, UniProt Q9Y5U5 26-161, limits assumed, biotinylated (sites not given))
T1 construct: also called GITR-bio; Biotin-GITR
T1 sequence: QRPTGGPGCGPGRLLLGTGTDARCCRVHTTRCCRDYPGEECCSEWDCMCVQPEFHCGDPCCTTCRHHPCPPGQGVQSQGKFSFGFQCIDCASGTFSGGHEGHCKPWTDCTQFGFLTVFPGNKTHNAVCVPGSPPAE
experiment: BLI (Octet), biotin-GITR on streptavidin tips, antibody supernatant
Experimental: Several hundred germlined antibodies were selected based on binding kinetics as determined by Octet measurements (Octet RED 96 system; ForteBio™ Inc., Menlo Park, Calif.). […] Dissociation of the antibody-antigen complex was measured in wells containing the Octet buffer alone for 5 minutes. […] Affinity, Kₒₙ and Koff were determined with Octet evaluation software v6.3 using a 1:1 binding model with local full fitting.
measuredEndpoint: pKd
pKd is defined as minus the log10 of a concentration measured in mol/L.

The following binders have reported results that may help.
[
  {
    "binder": "germline variant antibody 79 (H1917D04 / K1917D04) (antibody, V domains shown, IGHG1/IGKC expression vectors; measured from CHO culture supernatant; also called Antibody ID 79) VH: QVQLVQSGTEVKKPGASVKVSCKGSGYTFTEYAMHWVRQAPGQGMEWMGLIRTYSGGVTYNQKFRERVTMTVDKSISTAYMELSRLRSDDTAVYYCAKSGTVRGFAYWGQGTLVTVSS VL: DIVMTQSPDSLAVSLGERATINCKSSQSLLNSGNQKNYLTWYHQKPGQPPKMLIYWASTRESGVPDRFSGSGSGTDFTLTISSLQAEDVAVYYCQNDYSYPYTFGQGTKLEIK",
    "measuredEndpoint": "pKd",
    "valueObserved": 8.54
  },
  {
    "binder": "germline variant antibody 29 (H1916C11 / K1916C11) (antibody, V domains shown, IGHG1/IGKC expression vectors; measured from CHO culture supernatant; also called Antibody ID 29) VH: QVQLVQSGAEVKKPGASVKVSCKGSGYTFTDYAMYWVRQAPGQGLEWIGVIRTFSGGVTYNQKFKGRATMTVDTSISTAYMELSRLRSDDTAVYYCAKSGTVRGFAYWGQGTLVTVSS VL: DIVMTQSPDSLAVSLGERATINCKSSQSLLNSSNQKNYLSWYQQKPGQPPKLLIYWASTRESGVPDRFSGSGSGTDFTLTISSLQAEDVAVYHCQNDYSYPYTFGQGTKLEIK",
    "measuredEndpoint": "pKd",
    "valueObserved": 8.97
  },
  {
    "binder": "germline variant antibody 18 (H1916B09 / K1916B09) (antibody, V domains shown, IGHG1/IGKC expression vectors; measured from CHO culture supernatant; also called Antibody ID 18) VH: QVQLVQSGTEVKKPGASVKVSCKASGYTFTGYAMYWVRQAPGQGMEWIGLIRTFSGEVTYNQKFRGRVTMTVDTSISTAYMELSRLRSDDTAVYYCAKSGTVRGFAYWGQGTLVTVSS VL: DIVMTQSPDSLAVSLGERATINCKSSQSLLNSSNQKNYLTWYHQKPGQPPKMLIYWASTRESGVPDRFTGSGSGTDFTLTISSVQAEDVAVYYCQNDYSYPYTFGQGTKLEIK",
    "measuredEndpoint": "pKd",
    "valueObserved": 8.42
  },
  {
    "binder": "germline variant antibody 86 (H1917E03 / K1917E03) (antibody, V domains shown, IGHG1/IGKC expression vectors; measured from CHO culture supernatant; also called Antibody ID 86) VH: QVQLVQSGAEVKKPGASVKVSCKGSGYTFTEYAMYWVRQAPGQGMEWMGVIRTYSGGVTYNQKFRDRATMTVDTSISTAYMELSRLRSDDTAVYYCAKSGTVRGFAYWGQGTLVTVSS VL: DIVMTQSPDSLAVSLGERATINCKSSQSLLNSGNQKNYLTWYHQKPGQPPKLLIYWASTRESGVPDRFSGSGSGTDFTLTISSVQAEDVAVYYCQNDYSYPYTFGQGTKLEIK",
    "measuredEndpoint": "pKd",
    "valueObserved": 9.12
  },
  {
    "binder": "germline variant antibody 107 (H1917H09 / K1917H09) (antibody, V domains shown, IGHG1/IGKC expression vectors; measured from CHO culture supernatant) VH: QVQLVQSGAEVKKPGASVKVSCKGSGYTFTGYAMYWVRQAPGQGLEWMGVIRTYSGDVSYNQKFRDRVTMTVDTSISTAYMELSRLRSDDTAVYYCAKSGTVRGFAYWGQGTLVTVSS VL: DIVMTQSPDSLAVSLGERATINCKSSQSLLNSGNQKNYLSWYHQKPGQPPKLLIYWASTRESGVPDRFTGSGSGTDFTLTISSVQAEDVAVYYCQNDYSYPYTFGQGTKLEIK",
    "measuredEndpoint": "pKd",
    "valueObserved": 8.66
  }
]

(Q) Assign pKd to the following record: germline variant antibody 50 (H1916F03 / K1916F03) (antibody, V domains shown, IGHG1/IGKC expression vectors; measured from CHO culture supernatant; also called Antibody ID 50) VH: QVQLVQSGTEVKKPGASVKVSCKASGYTFTDYAMYWVRQAPGQGLEWIGLIRTFSGGVSYNQKFKERVTMTVDKSISTAYMELSRLRSDDTAVYYCAKSGTVRGFAYWGQGTLVTVSS VL: DIVMTQSPDSLAVSLGERATINCKSSQSLLNSSNQKNYLTWYQQKPGQPPKMLIYWASTRESGVPDRFSGSGSGTDFTLTISSLQAEDVAVYYCQNDYSYPYTFGQGTKLEIK
(A) 9.00

(Q) Assign pKd to the following record: germline variant antibody 97 (H1917G07 / K1917G07) (antibody, V domains shown, IGHG1/IGKC expression vectors; measured from CHO culture supernatant; also called Antibody ID 97) VH: QVQLVQSGTEVKKPGASVKVSCKGSGYTFTEYAMHWVRQAPGQGMEWIGLIRTFSGGLSYNQKFRDRVTMTVDKSISTAYMELSRLRSDDTAVYYCAKSGTVRGFAYWGQGTLVTVSS VL: DIVMTQSPDSLAVSLGERATINCKSSQSLLNSGNQKNYLTWYHQKPGQPPKLLIYWASTRESGVPDRFTGSGSGTDFTLTISSVQAEDVAVYHCQNEYSFPYTFGQGTKLEIK
(A) 8.84

(Q) Assign pKd to the following record: germline variant antibody 15 (H1916B05 / K1916B05) (antibody, V domains shown, IGHG1/IGKC expression vectors; measured from CHO culture supernatant; also called Antibody ID 15) VH: QVQLVQSGAEVKKPGASVKVSCKGSGYTFTDYAMYWVRQAPGQGLEWIGVIRTFSGDVSYNQKFRERATMTVDKSISTAYMELSRLRSDDTAVYYCAKSGTVRGFAYWGQGTLVTVSS VL: DIVMTQSPDSLAVSLGERATINCKSSQSLLNSGNQKNYLSWYQQKPGQPPKLLIYWASTRESGVPDRFTGSGSGTDFTLTISSLQAEDVAVYHCQNDYSYPYTFGQGTKLEIK
(A) 8.65

(Q) Assign pKd to the following record: germline variant antibody 49 (H1916E11 / K1916E11) (antibody, V domains shown, IGHG1/IGKC expression vectors; measured from CHO culture supernatant; also called Antibody ID 49) VH: QVQLVQSGTEVKKPGASVKVSCKGSGYTFTGYAMYWVRQAPGQGLEWMGVIRTYSGDVTYNQKFRERATMTVDTSISTAYMELSRLRSDDTAVYYCAKSGTVRGFAYWGQGTLVTVSS VL: DIVMTQSPDSLAVSLGERATINCKSSQSLLNSGNQKNYLTWYHQKPGQPPKLLIYWASTRESGVPDRFSGSGSGTDFTLTISSVQAEDVAVYHCQNDYSFPYTFGQGTKLEIK
(A) 8.68

(Q) Assign pKd to the following record: germline variant antibody 9 (H1916A10 / K1916A10) (antibody, V domains shown, IGHG1/IGKC expression vectors; measured from CHO culture supernatant; also called Antibody ID 9) VH: QVQLVQSGAEVKKPGASVKVSCKASGYTFTGYAMYWVRQAPGQGLEWMGLIRTYSGEVSYNQKFRGRATMTVDKSISTAYMELSRLRSDDTAVYYCAKSGTVRGFAYWGQGTLVTVSS VL: DIVMTQSPDSLAVSLGERATINCKSSQSLLNSGNQKNYLTWYQQKPGQPPKMLIYWASTRESGVPDRFSGSGSGTDFTLTISSLQAEDVAVYHCQNDYSFPYTFGQGTKLEIK
(A) 8.57

(Q) Assign pKd to the following record: germline variant antibody 94 (H1917G01 / K1917G01) (antibody, V domains shown, IGHG1/IGKC expression vectors; measured from CHO culture supernatant; also called Antibody ID 94) VH: QVQLVQSGTEVKKPGASVKVSCKGSGYTFTGYAMYWVRQAPGQGLEWIGVIRTFSGGVTYNQKFRDRVTMTVDKSISTAYMELSRLRSDDTAVYYCAKSGTVRGFAYWGQGTFVTVSS VL: DIVMTQSPDSLAVSLGERATINCKSSQSLLNSGNQKNYLTWYQQKPGQPPKLLIYWASTRESGVPDRFTGSGSGTDFTLTISSVQAEDVAVYHCQNDYSYPYTFGQGTKLEIK
(A) 8.93
